System: IOR/OS10 OS cells
experimentalProtocol: Cell viability IC50, IOR/OS10
Format: cell-based
conditions: Homo sapiens
Method: The plate was installed into the RTCA system, and the electrical impedance (represented as cell index) was measured every 10 min. To investigate the relationship between the level of CD99 expression and drug sensitivity, the endogenous expression of CD99 was determined in a panel of 9 ES and 13 non-ES cell lines. The recombinant purified CD99-ECD protein was used to generate standard curves for immunoquantification of CD99 expression by immunoblotting (FIGS. 6B and 6C).
assayMetric: IC50

{"columns": ["molecule", "IC50"],
 "data": [
  ["Nc1nc(Cl)nc2c1ncn2[C@@H]1O[C@H](CO)[C@@H](O)[C@@H]1F [clofarabine]", "1.37 µM"]
]}

Lab note: next molecule to report on.
Using the record for Nc1nc(Cl)nc2c1ncn2[C@H]1C[C@H](O)[C@@H](CO)O1 [cladribine] , report its IC50.
11.4 µM
